These entries and their values trace back to patent US20260317320A1.

The reader will find reported IC50 values listed item by item below.
# assaySystem: complement C5a receptor 1 (C5aR1) (Homo sapiens, UniProt P21730)
# Construct: β-galactosidase fragment (PathHunter enzyme complementation); host or cells: CHO-K1 (PathHunter CHO-K1 C5aR1 β-arrestin cell line)
# experimentSummary: β-arrestin recruitment via C5aR1 activation in live CHO-K1 cells (PathHunter), antagonist mode
# Format: cell-based
# conditionInfo: antagonist mode; recombinant hC5a (EC90) as competing natural agonist; live CHO-K1 cells; read-out: [Antagonist] B-arrestin2 recruitment: Average IC50

Known results for molecules:
Prompt line: If you can, please state the reported IC50 value of Cc1cnc2cc([C@H]3CC[C@@H](c4c(C)cccc4F)CC3)c(=O)n(Cc3ncccc3C(F)(F)F)c2n1 [121b] .
Response line: 0.5 to 5 µM

Prompt line: Please do the same for Cc1cnc2c(=O)n(C3CCN(c4c(C)cccc4F)CC3)c(=O)n(Cc3ncccc3C(F)(F)F)c2n1 [compound 50] as well.
Response line: 0.5 to 5 µM

Prompt line: Please do the same for COc1ccnc(F)c1N1CCC(c2cc3nccnc3n(Cc3ncccc3C(F)(F)F)c2=O)CC1 [compound 79] as well.
Response line: 0.5 to 5 µM

New cases:
Prompt line: If you can, please state the reported IC50 value of Cc1cnc2cc([C@H]3CC[C@H](c4ncsc4C)CC3)c(=O)n(Cc3ncccc3OC(F)(F)F)c2n1 [compound 166] .
Response line: < 0.5 µM

###

The reader will find reported pIC50 values listed item by item below.
# assaySystem: complement C5a receptor 1 (C5aR1) (Homo sapiens)
# Construct: β-galactosidase fragment (PathHunter enzyme complementation); host or cells: CHO-K1 (PathHunter CHO-K1 C5aR1 β-arrestin cell line)
# Sequence (P21730 1-350): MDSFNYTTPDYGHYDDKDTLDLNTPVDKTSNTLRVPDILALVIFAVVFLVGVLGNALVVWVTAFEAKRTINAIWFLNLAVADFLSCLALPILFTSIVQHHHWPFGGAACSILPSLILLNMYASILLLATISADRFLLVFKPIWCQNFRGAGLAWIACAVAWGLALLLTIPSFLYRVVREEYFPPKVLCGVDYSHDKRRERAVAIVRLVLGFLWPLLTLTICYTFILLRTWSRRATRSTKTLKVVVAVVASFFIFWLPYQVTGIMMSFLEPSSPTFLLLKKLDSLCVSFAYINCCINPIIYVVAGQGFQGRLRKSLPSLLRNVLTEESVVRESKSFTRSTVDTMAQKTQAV
# experimentSummary: β-arrestin recruitment via C5aR1 activation in live CHO-K1 cells (PathHunter), antagonist mode
# Type: cell-based
# conditionInfo: antagonist mode; recombinant hC5a (EC90) as competing natural agonist; live CHO-K1 cells; read-out: [Antagonist] B-arrestin2 recruitment: Average IC50
pIC50: −log10 of the molar value.

Known results for compounds:
Prompt line: If you can, please state the reported pIC50 value of Cc1cnc2cc([C@H]3CC[C@H](c4c(C)cccc4F)C3)c(=O)n(Cc3ncccc3C(F)(F)F)c2n1 [171C] .
Response line: > 6.30

Prompt line: Please do the same for Cc1ccc2cc([C@H]3CC[C@H](c4c(C)cccc4F)CC3)c(=O)n(Cc3nccnc3OCC(F)F)c2n1 [compound 263] as well.
Response line: > 6.30

Prompt line: Please do the same for Cc1cnc2cc(C3CCN(c4c(C)cccc4F)CC3)c(=O)n(Cc3ncccc3OC(F)(F)F)c2n1 [compound 68] as well.
Response line: > 6.30

Prompt line: Please do the same for Cc1cnc2cc(C3CCN(c4c(C)cccc4F)CC3)c(=O)n(Cc3ncccc3C(F)F)c2n1 [compound 138] as well.
Response line: > 6.30

Prompt line: Please do the same for Cc1cnc2cc(C3CCN(c4nccnc4C(F)(F)F)CC3)c(=O)n(Cc3ncccc3C(F)(F)F)c2n1 [compound 156] as well.
Response line: 5.30 to 6.30

Prompt line: Please do the same for CCc1cnc2c(cc([C@H]3CC[C@H](c4c(C)cccc4F)CC3)c(=O)n2Cc2ncccc2OC(F)(F)F)n1 [compound 215] as well.
Response line: > 6.30

New cases:
Prompt line: If you can, please state the reported pIC50 value of Cc1cnc2cc(C3CCN(c4nncs4)CC3)c(=O)n(Cc3ncccc3C(F)(F)F)c2n1 [compound 132] .
Response line: < 4.00

Prompt line: Please do the same for Cc1cnc2cc(C3CCN(c4c(C)cccc4F)CC3)c(=O)n([C@@H]3CCCc4nccnc43)c2n1 [61b] as well.
Response line: > 6.30

Prompt line: Please do the same for Cc1cccc(F)c1N1CCN(c2cc3nccnc3n(Cc3nccnc3C(F)(F)F)c2=O)CC1 [compound 24] as well.
Response line: 5.30 to 6.30
